# assay_explanation: Inhibition of AMPK at 1 uM; values are per cent of control
attribute_measured: residual activity (%)

{"columns": ["compound_structure_string", "unit", "experimental_result"],
 "data": [
  ["CCNCc1ccc(N/C(=C2\\C(=O)Nc3cc(C(=O)N(C)CC)ccc32)c2ccccc2)cc1", "%", 81],
  ["CCNC(=O)c1ccc2c(c1)NC(=O)/C2=C(\\Nc1ccc(CN(C)C)cc1)c1ccccc1", "%", 85],
  ["CCNC(=O)c1ccc2c(c1)NC(=O)/C2=C(\\Nc1ccc(N(CCN(C)C)S(C)(=O)=O)cc1)c1ccccc1", "%", 74]
]}

====

# subject_of_test: Dual specificity mitogen-activated protein kinase kinase 1 (Homo sapiens) (UniProt Q02750)
# Sequence (Q02750 whole entry): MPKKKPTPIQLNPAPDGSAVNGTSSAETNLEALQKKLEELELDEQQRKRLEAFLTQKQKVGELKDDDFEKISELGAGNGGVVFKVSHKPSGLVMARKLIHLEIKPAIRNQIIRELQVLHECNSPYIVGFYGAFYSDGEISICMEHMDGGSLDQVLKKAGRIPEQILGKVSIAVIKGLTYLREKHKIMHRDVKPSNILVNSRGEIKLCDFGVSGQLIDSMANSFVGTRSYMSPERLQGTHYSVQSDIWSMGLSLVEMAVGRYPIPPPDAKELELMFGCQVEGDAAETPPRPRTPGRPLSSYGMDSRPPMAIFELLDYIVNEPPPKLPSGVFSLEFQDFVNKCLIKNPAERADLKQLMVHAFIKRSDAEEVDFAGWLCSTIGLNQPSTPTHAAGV
# assay_explanation: Inhibition of MKK1 at 1 uM; values are per cent of control
attribute_measured: residual activity (%)

{"columns": ["compound_structure_string", "unit", "residual activity"],
 "data": [
  ["CCNC(=O)c1ccc2c(c1)NC(=O)/C2=C(\\Nc1ccc(N(CCN(C)C)S(C)(=O)=O)cc1)c1ccccc1", "%", 53],
  ["CCN(C)C(=O)c1ccc2c(c1)NC(=O)/C2=C(\\Nc1ccc(CN2CCCCC2)cc1)c1ccccc1", "%", 48],
  ["CCNC(=O)c1ccc2c(c1)NC(=O)/C2=C(\\Nc1ccc(CN(C)C)cc1)c1ccccc1", "%", 59]
]}

====

// reported pEC50 for each item listed
# subject_of_test: TGF-beta receptor type-1 (Homo sapiens)
# Sequence (P36897 whole entry): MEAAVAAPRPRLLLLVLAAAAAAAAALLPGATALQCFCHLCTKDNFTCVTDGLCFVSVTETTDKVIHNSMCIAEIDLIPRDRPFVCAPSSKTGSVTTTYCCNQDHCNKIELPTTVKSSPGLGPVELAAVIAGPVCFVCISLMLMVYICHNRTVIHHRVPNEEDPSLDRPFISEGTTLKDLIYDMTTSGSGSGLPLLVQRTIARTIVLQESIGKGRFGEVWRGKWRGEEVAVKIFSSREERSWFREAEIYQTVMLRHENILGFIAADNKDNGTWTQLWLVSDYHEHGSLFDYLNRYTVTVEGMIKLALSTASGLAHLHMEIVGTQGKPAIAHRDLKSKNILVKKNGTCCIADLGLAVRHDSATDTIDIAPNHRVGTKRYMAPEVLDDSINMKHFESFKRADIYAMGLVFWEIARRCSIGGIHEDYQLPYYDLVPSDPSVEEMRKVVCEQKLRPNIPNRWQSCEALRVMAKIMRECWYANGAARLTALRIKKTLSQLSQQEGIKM
# assay_explanation: Inhibition of TGFbeta receptor in human HaCaT cells assessed as Smad phosphorylation by ELISA
pEC50: −log10 of the molar value.

Could you share which pEC50 value was measured for `CCN(C)C(=O)c1ccc2c(c1)NC(=O)/C2=C(\Nc1ccc(N(CC(=O)N(C)C)S(C)(=O)=O)cc1)c1ccccc1` ?
< 5.52

// same read-out, input: `CCN(C)C(=O)c1ccc2c(c1)NC(=O)/C2=C(\NC1CCN(C)CC1)c1ccccc1`
< 5.00

// same read-out, input: `O=C1Nc2cc(C(=O)NCCO)ccc2/C1=C(/Nc1ccc(CN2CCCCC2)cc1)c1ccccc1`
< 4.30
